The values you see were collected from patent US20260042764A1.

- assayed-system: Avi-KRAS WT (2-169) GTP/RAF1 RBD-3xFLAG (51-131) (Homo sapiens)
- Construct: Avi-KRAS WT (2-169)
- Sequence (P01116 2-169 isoform P01116-2): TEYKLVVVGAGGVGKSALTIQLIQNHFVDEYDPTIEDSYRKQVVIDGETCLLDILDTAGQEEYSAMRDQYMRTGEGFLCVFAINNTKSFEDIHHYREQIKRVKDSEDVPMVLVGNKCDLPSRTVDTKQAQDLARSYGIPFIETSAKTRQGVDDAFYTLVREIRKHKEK
- method-description: Raf1-KRAS WT-GTP disruption HTRF assay (Biological Example 3)
- Format: binding
- cond: KRAS WT, GTP-loaded
endpoint-name: IC50

Recorded results for 2 molecules are shown here.
>  <molecule>
C[C@@H](c1cccnc1)N(C)c1nc(OC[C@@]23CCCN2C[C@H](F)C3)nc2c(F)c(-c3ccc(F)c4sc(N)c(C#N)c34)c(C(F)(F)F)cc12

>  <value>
1000 to 10000 nM

$$$$
>  <molecule>
CCN(c1nc(OC[C@@]23CCCN2C[C@H](F)C3)nc2c(F)c(-c3ccc(F)c4sc(N)c(C#N)c34)c(C(F)(F)F)cc12)[C@H]1CCN(C(=O)OCC2COC2)[C@@H]1C (atropisomer, axis not shown)

>  <value>
1000 to 10000 nM

$$$$

Okay, next one:
input: # input molecule: CCN(c1nc(OC[C@@]23CCCN2C[C@H](F)C3)nc2c(F)c(-c3ccc(F)c4sc(N)c(C#N)c34)c(C(F)(F)F)cc12)[C@H]1C[C@H]2C[C@H](C)C(=O)N2C1 (atropisomer, axis not shown) ; wanted: its IC50
output: ≤ 100 nM

====

- assayed-system: Avi-KRAS G12V (1-169) GppNHp/RAF1 RBD-3xFLAG (52-151) (Homo sapiens, UniProt P01116, G12V)
- Construct: Avi-KRAS G12V (1-169)
- Sequence (P01116 1-169 isoform P01116-2 G12V): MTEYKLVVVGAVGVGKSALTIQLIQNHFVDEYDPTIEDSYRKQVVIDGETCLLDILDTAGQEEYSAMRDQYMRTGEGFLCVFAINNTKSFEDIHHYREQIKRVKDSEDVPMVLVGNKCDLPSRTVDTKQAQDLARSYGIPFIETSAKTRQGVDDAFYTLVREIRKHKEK
- method-description: Raf1-KRAS G12V-GppNHP disruption HTRF assay (Biological Example 1)
- Type: binding
- cond: KRAS G12V, GppNHp-loaded; Table 11
- Procedure: A protein:protein interaction (PPI) Homogeneous Time Resolved Fluorescence (HTRF) assay was used to determine the effectiveness of compounds of the present disclosure in disrupting KRAS protein and effector RAF1 binding. The assay buffer included: 50 mM Tris pH 7.5, 100 mM NaCl, 5 mM MgCl2, 0.1% BSA, 0.01% Tween, and 10% DMSO. The bead buffer included: 50 mM Tris pH 7.5, and 0.01% Tween 20. […] Data was reported as percentage of activity, with DMSO as 100%. Data was plotted and analyzed using Prism 8.
pIC50: −log10 of the molar value.
# maps each entry to its pIC50

>  <molecule>
N#Cc1c(N)sc2c(F)ccc(-c3c(C(F)(F)F)cc4c(N5CC6(COC6)C5)nc(OC[C@@]56CCCN5C[C@H](F)C6)nc4c3F)c12

>  <assayed-system>
Avi-KRAS G12V (1-169) GppNHp/RAF1 RBD-3xFLAG (52-151) (Homo sapiens, UniProt P01116, G12V)

>  <pIC50>
5.00 to 6.00

$$$$
>  <molecule>
CC(=O)N1CC[C@H](N(C)c2nc(OC[C@@H]3C[C@@H](F)CN3C)nc3c(F)c(-c4ccc(F)c5sc(N)c(C#N)c45)c(C(F)(F)F)cc23)[C@@H]1C

>  <assayed-system>
Avi-KRAS G12V (1-169) GppNHp/RAF1 RBD-3xFLAG (52-151) (Homo sapiens, UniProt P01116, G12V)

>  <pIC50>
< 5.00

$$$$
>  <molecule>
CN(CC1(CO)CC1)c1nc(OC[C@@]23CCCN2C[C@H](F)C3)nc2c(F)c(-c3ccc(F)c4sc(N)c(C#N)c34)c(C(F)(F)F)cc12

>  <assayed-system>
Avi-KRAS G12V (1-169) GppNHp/RAF1 RBD-3xFLAG (52-151) (Homo sapiens, UniProt P01116, G12V)

>  <pIC50>
6.00 to 7.00

$$$$
>  <molecule>
CN(CCO)c1nc(OC[C@@]23CCCN2C[C@H](F)C3)nc2c(F)c(-c3ccc(F)c4sc(N)nc34)c(C(F)(F)F)cc12

>  <assayed-system>
Avi-KRAS G12V (1-169) GppNHp/RAF1 RBD-3xFLAG (52-151) (Homo sapiens, UniProt P01116, G12V)

>  <pIC50>
5.00 to 6.00

$$$$
>  <molecule>
Nc1nc2c(-c3c(C(F)(F)F)cc4c(N[C@H]5CC[C@@H](O)C5)nc(OCC56CCCN5CCC6)nc4c3F)ccc(F)c2s1 (atropisomer, axis not shown)

>  <assayed-system>
Avi-KRAS G12V (1-169) GppNHp/RAF1 RBD-3xFLAG (52-151) (Homo sapiens, UniProt P01116, G12V)

>  <pIC50>
< 5.00

$$$$
>  <molecule>
CN(c1nc(OCC23CCCN2CCC3)nc2c(F)c(-c3ccc(F)c4sc(N)nc34)c(-c3ccoc3)cc12)[C@H]1C[C@@H](O)C1

>  <assayed-system>
Avi-KRAS G12V (1-169) GppNHp/RAF1 RBD-3xFLAG (52-151) (Homo sapiens, UniProt P01116, G12V)

>  <pIC50>
< 5.00

$$$$
>  <molecule>
N#Cc1c(N)sc2c(F)ccc(-c3c(C(F)(F)F)cc4c(N5CC[C@H](CO)C5)nc(OC[C@@]56CCCN5C[C@H](F)C6)nc4c3F)c12

>  <assayed-system>
Avi-KRAS G12V (1-169) GppNHp/RAF1 RBD-3xFLAG (52-151) (Homo sapiens, UniProt P01116, G12V)

>  <pIC50>
6.00 to 7.00

$$$$
>  <molecule>
CN(c1nc(OC[C@@]23CCCN2C[C@H](F)C3)nc2c(F)c(-c3ccc(F)c4sc(N)c(C#N)c34)c(C(F)(F)F)cc12)[C@H]1CCS(=O)(=O)C1 (single isomer, unassigned) [Compound 220]

>  <assayed-system>
Avi-KRAS G12V (1-169) GppNHp/RAF1 RBD-3xFLAG (52-151) (Homo sapiens, UniProt P01116, G12V)

>  <pIC50>
< 5.00

$$$$
>  <molecule>
CCN(c1nc(OCC23CCCN2CCC3)nc2c(F)c(-c3ccc(F)c4sc(N)nc34)c(C(F)(F)F)cc12)[C@H]1C[C@@H](O)C1 (atropisomer, axis not shown)

>  <assayed-system>
Avi-KRAS G12V (1-169) GppNHp/RAF1 RBD-3xFLAG (52-151) (Homo sapiens, UniProt P01116, G12V)

>  <pIC50>
5.00 to 6.00

$$$$
>  <molecule>
CN(c1nc(OC[C@@]23CCCN2C[C@H](F)C3)nc2c(F)c(-c3ccc(F)c4sc(N)c(C#N)c34)c(C(F)(F)F)cc12)[C@H]1CCC[C@@H]1CO

>  <assayed-system>
Avi-KRAS G12V (1-169) GppNHp/RAF1 RBD-3xFLAG (52-151) (Homo sapiens, UniProt P01116, G12V)

>  <pIC50>
5.00 to 6.00

$$$$

input: Any idea what pIC50 came out for CC1(O)CCN(c2nc(OC[C@@]34CCCN3C[C@H](F)C4)nc3c(F)c(-c4ccc(F)c5sc(N)c(C#N)c45)c(C(F)(F)F)cc23)CC1 on Avi-KRAS G12V (1-169) GppNHp/RAF1 RBD-3xFLAG (52-151) (Homo sapiens, UniProt P01116, G12V)?
output: 5.00 to 6.00

input: Any idea what pIC50 came out for C[C@@H]1C[C@H](O)CCN1c1nc(OC[C@@]23CCCN2C[C@H](F)C3)nc2c(F)c(-c3ccc(F)c4sc(N)c(C#N)c34)c(C(F)(F)F)cc12 on Avi-KRAS G12V (1-169) GppNHp/RAF1 RBD-3xFLAG (52-151) (Homo sapiens, UniProt P01116, G12V)?
output: 6.00 to 7.00

input: Any idea what pIC50 came out for CO[C@@H]1C[C@@H](COc2nc(N(C)[C@H]3CCN(C(C)=O)[C@H]3C)c3cc(C(F)(F)F)c(-c4ccc(F)c5sc(N)c(C#N)c45)c(F)c3n2)N(C)C1 on Avi-KRAS G12V (1-169) GppNHp/RAF1 RBD-3xFLAG (52-151) (Homo sapiens, UniProt P01116, G12V)?
output: < 5.00

input: Any idea what pIC50 came out for CC(C)(O)[C@H]1CCN1c1nc(OC[C@@]23CCCN2C[C@H](F)C3)nc2c(F)c(-c3ccc(F)c4sc(N)c(C#N)c34)c(C(F)(F)F)cc12 on Avi-KRAS G12V (1-169) GppNHp/RAF1 RBD-3xFLAG (52-151) (Homo sapiens, UniProt P01116, G12V)?
output: 5.00 to 6.00

input: Any idea what pIC50 came out for CC(=O)N1CCCN(c2nc(OC[C@@]34CCCN3C[C@H](F)C4)nc3c(F)c(-c4ccc(F)c5sc(N)c(C#N)c45)c(C(F)(F)F)cc23)CC1 on Avi-KRAS G12V (1-169) GppNHp/RAF1 RBD-3xFLAG (52-151) (Homo sapiens, UniProt P01116, G12V)?
output: 6.00 to 7.00

input: Any idea what pIC50 came out for CC(=O)N1CC[C@H](N(C)c2nc(OC[C@@]34CCCN3C[C@H](F)C4)nc3c(F)c(-c4ccc(F)c5sc(N)c(C#N)c45)c(C(F)(F)F)cc23)[C@H]1C on Avi-KRAS G12V (1-169) GppNHp/RAF1 RBD-3xFLAG (52-151) (Homo sapiens, UniProt P01116, G12V)?
output: 6.00 to 7.00

input: Any idea what pIC50 came out for N#CC[C@H]1CN(c2nc(OC[C@@]34CCCN3C[C@H](F)C4)nc3c(F)c(-c4ccc(F)c5sc(N)c(C#N)c45)c(C(F)(F)F)cc23)CCO1 on Avi-KRAS G12V (1-169) GppNHp/RAF1 RBD-3xFLAG (52-151) (Homo sapiens, UniProt P01116, G12V)?
output: 5.00 to 6.00

input: Any idea what pIC50 came out for C[C@H](CO)N(C)c1nc(OC[C@@]23CCCN2C[C@H](F)C3)nc2c(F)c(-c3ccc(F)c4sc(N)c(C#N)c34)c(C(F)(F)F)cc12 on Avi-KRAS G12V (1-169) GppNHp/RAF1 RBD-3xFLAG (52-151) (Homo sapiens, UniProt P01116, G12V)?
output: 6.00 to 7.00

input: Any idea what pIC50 came out for CN(C)C(=O)c1cc2n(n1)CCCN(c1nc(OC[C@@]34CCCN3C[C@H](F)C4)nc3c(F)c(-c4ccc(F)c5sc(N)c(C#N)c45)c(C(F)(F)F)cc13)C2 on Avi-KRAS G12V (1-169) GppNHp/RAF1 RBD-3xFLAG (52-151) (Homo sapiens, UniProt P01116, G12V)?
output: 6.00 to 7.00
